meta.source: patent US6251894A

- Test system: Substance P Induced Relaxation of the Pig Coronary Arteries
- test_name: Antagonism of substance P induced relaxation of the pig coronary arteries
- setup_conditions: test compound concentration 3 × 10^-9 (unit not given), 30 min incubation
measurement_name: % inhibition of the response to 10^-9 M substance P (%)

INSERT INTO results (molecule, measurement_unit, meas_value) VALUES
  ('Cc1cc(C)cc(C(=O)N2CC[C@H](N3CCC(=C4c5ccsc5CCn5ccnc54)CC3)C[C@@H]2Cc2ccccc2)c1 (relative stereo)', '%', 27.1),
  ('Cc1ccc2c(c1)CCn1ccnc1C2=C1CCN([C@H]2CCN(C(=O)c3cc(C(F)(F)F)cc(C(F)(F)F)c3)[C@H](Cc3ccccc3)C2)CC1 (relative stereo)', '%', 86.3),
  ('O=C(c1ccccc1)N1CC[C@@H](N2CCC(C3c4ccccc4Cn4c3nc3ccccc34)CC2)C[C@@H]1Cc1ccccc1 (stereo partly drawn)', '%', 13.7),
  ('Cc1cc(C)cc(C(=O)N2CC[C@H](N3CCC(=C4c5ccccc5CCn5c(Cl)cnc54)CC3)C[C@H]2Cc2ccccc2)c1 (relative stereo)', '%', 63.9),
  ('Cc1cc(C)cc(C(=O)N2CC[C@@H](N3CCC(=C4c5ccccc5CCn5c(C=O)cnc54)CC3)C[C@H]2Cc2ccccc2)c1 (relative stereo)', '%', 38.3),
  ('O=C(c1ccco1)N1CC[C@@H](N2CCC(=C3c4ccccc4CCn4ccnc43)CC2)C[C@@H]1Cc1ccccc1 (relative stereo)', '%', 3.2);

* * *

- Test system: Substance P Induced Plasma Extravasation
- test_name: Antagonism of substance P induced plasma extravasation in guinea-pigs
- Type: in vivo, guinea-pig
- setup_conditions: Cavia porcellus, po, 10 min; p.o., 1 hour prior to substance P; nose; read-out: lowest active dose (LAD), nose
measurement_name: minimal effective dose (mg/kg)

INSERT INTO measurements (compound, measurement_name, measurement_unit, meas_value) VALUES
  ('O=C(c1cc(C(F)(F)F)cc(C(F)(F)F)c1)N1CC[C@@H](N2CCC(C3c4ccccc4Cn4c3nc3ccccc34)CC2)C[C@H]1Cc1ccccc1 (mixture of isomers)', 'minimal effective dose', 'mg/kg', 10),
  ('COC(=O)c1cnc2n1CCc1ccccc1C2=C1CCN([C@H]2CCN(C(=O)c3cc(C(F)(F)F)cc(C(F)(F)F)c3)[C@@H](Cc3ccccc3)C2)CC1 (racemic)', 'minimal effective dose', 'mg/kg', 10),
  ('O=C(c1cc(C(F)(F)F)cc(C(F)(F)F)c1)N1CC[C@@H](N2CCC(=C3c4ccccc4CCn4c(CO)cnc43)CC2)C[C@@H]1Cc1ccccc1 (relative stereo)', 'minimal effective dose', 'mg/kg', 2.5),
  ('O=C(c1cc(C(F)(F)F)cc(C(F)(F)F)c1)N1CC[C@H](N2CCC(=C3c4ccccc4CCn4c3nc3ccccc34)CC2)C[C@H]1Cc1ccccc1 (relative stereo)', 'minimal effective dose', 'mg/kg', 10),
  ('O=C1Cn2ccnc2C(=C2CCN([C@@H]3CCN(C(=O)c4cc(C(F)(F)F)cc(C(F)(F)F)c4)[C@@H](Cc4ccccc4)C3)CC2)c2ccsc21 (relative stereo)', 'minimal effective dose', 'mg/kg', 10);

* * *

Each entry below carries its recorded % inhibition of the response to 10^-9 M substance P.
- Test system: Substance P Induced Relaxation of the Pig Coronary Arteries
- test_name: Antagonism of substance P induced relaxation of the pig coronary arteries
- setup_conditions: test compound concentration 3 × 10^-9 (unit not given), 30 min incubation
measurement_name: % inhibition of the response to 10^-9 M substance P (%)

INSERT INTO results (molecule, meas_value) VALUES
  ('O=C(c1ccc2[nH]ccc2c1)N1CC[C@@H](N2CCC(=C3c4ccccc4CCn4ccnc43)CC2)C[C@@H]1Cc1ccccc1 (relative stereo)', 2.2),
  ('COC(=O)c1cnc2n1CCc1ccsc1C2=C1CCN([C@@H]2CCN(C(=O)c3cc(C)cc(C)c3)[C@@H](Cc3ccccc3)C2)CC1 (relative stereo)', 23.7),
  ('O=C(c1cc(C(F)(F)F)cc(C(F)(F)F)c1)N1CC[C@H](N2CCC(=C3c4ccccc4CCn4c3nc3ccccc34)CC2)C[C@@H]1Cc1ccccc1 (relative stereo)', 53.1),
  ('Cc1cc(C)cc(C(=O)N2CC[C@@H](N3CCC(=C4c5ccn(C)c5CCn5ccnc54)CC3)C[C@@H]2Cc2ccccc2)c1 (relative stereo)', 43.5),
  ('Cc1cn2c(n1)C(=C1CCN([C@H]3CCN(C(=O)c4cc(C(F)(F)F)cc(C(F)(F)F)c4)[C@H](Cc4ccccc4)C3)CC1)c1ccn(C)c1CC2 (relative stereo)', 89.9);

* * *

- Test system: Substance P Induced Plasma Extravasation
- test_name: Antagonism of substance P induced plasma extravasation in guinea-pigs
- Assay type: in vivo, guinea-pig
- setup_conditions: Cavia porcellus, sc, 10 min; s.c., 1 hour prior to substance P; nose; read-out: lowest active dose (LAD), nose
measurement_name: minimal effective dose (mg/kg)

INSERT INTO measurements (molecule, measurement_unit, meas_value) VALUES
  ('Cc1cc(C)cc(C(=O)N2CC[C@H](N3CCC(=C4c5sccc5CCn5ccnc54)CC3)C[C@H]2Cc2ccccc2)c1 (relative stereo)', 'mg/kg', 2.5),
  ('Cc1cc(C)cc(C(=O)N2CC[C@H](N3CCC(=C4c5ccccc5CCn5ccnc54)CC3)C[C@H]2Cc2ccccc2)c1 (relative stereo)', 'mg/kg', 10),
  ('Cn1ccc2c1CCn1ccnc1C2=C1CCN([C@@H]2CCN(C(=O)c3cc(C(F)(F)F)cc(C(F)(F)F)c3)[C@@H](Cc3ccccc3)C2)CC1 (racemic)', 'mg/kg', 0.16),
  ('O=C(c1cc(C(F)(F)F)cc(C(F)(F)F)c1)N1CC[C@@H](N2CCC3(CC2)c2ccccc2CCn2ccnc23)C[C@@H]1Cc1ccccc1 (relative stereo)', 'mg/kg', 10),
  ('O=C(c1cc(C(F)(F)F)cc(C(F)(F)F)c1)N1CC[C@@H](N2CCC(C3c4ccccc4CCn4ccnc43)CC2)C[C@@H]1Cc1ccccc1 (some centres unmarked)', 'mg/kg', 2.5),
  ('Cc1cc(C)cc(C(=O)N2CC[C@@H](N3CCC(=C4c5ccsc5C(=O)Cn5ccnc54)CC3)C[C@@H]2Cc2ccccc2)c1 (relative stereo)', 'mg/kg', 0.63),
  ('O=C(c1cc(C(F)(F)F)cc(C(F)(F)F)c1)N1CC[C@H](N2CCC(=C3c4ccccc4CCn4c(CO)cnc43)CC2)C[C@@H]1Cc1ccccc1 (racemic)', 'mg/kg', 10),
  ('Cc1cc(C)cc(C(=O)N2CC[C@@H](N3CCC(=C4c5sccc5CCn5ccnc54)CC3)C[C@H]2Cc2ccccc2)c1 (relative stereo)', 'mg/kg', 10);

* * *

- Test system: Substance P Induced Plasma Extravasation
- test_name: Antagonism of substance P induced plasma extravasation in guinea-pigs
- Format: in vivo, guinea-pig
- setup_conditions: Cavia porcellus, po, 10 min; p.o., 1 hour prior to substance P; nose; read-out: lowest active dose (LAD), nose
measurement_name: minimal effective dose (mg/kg)

INSERT INTO results (compound, measurement_name, measurement_unit, meas_value) VALUES
  ('O=C1Cn2ccnc2C(=C2CCN([C@H]3CCN(C(=O)c4cc(C(F)(F)F)cc(C(F)(F)F)c4)[C@@H](Cc4ccccc4)C3)CC2)c2ccsc21 (relative stereo)', 'minimal effective dose', 'mg/kg', 10),
  ('O=C(c1cc(C(F)(F)F)cc(C(F)(F)F)c1)N1CC[C@@H](N2CCC(C3c4ccccc4Cn4c3nc3ccccc34)CC2)C[C@@H]1Cc1ccccc1 (mixture of isomers)', 'minimal effective dose', 'mg/kg', 10),
  ('O=Cc1cnc2n1CCc1ccccc1C2=C1CCN([C@H]2CCN(C(=O)c3cc(C(F)(F)F)cc(C(F)(F)F)c3)[C@@H](Cc3ccccc3)C2)CC1 (racemic)', 'minimal effective dose', 'mg/kg', 10);

* * *

- System: Substance P Induced Relaxation of the Pig Coronary Arteries
- test_name: Antagonism of substance P induced relaxation of the pig coronary arteries
- setup_conditions: test compound concentration 3 × 10^-9 (unit not given), 30 min incubation
measurement_name: % inhibition of the response to 10^-9 M substance P

INSERT INTO assay_data (molecule, meas_value) VALUES
  ('Cc1cc(C)cc(C(=O)N2CC[C@@H](N3CCC(C4c5ccccc5CCn5ccnc54)CC3)C[C@H]2Cc2ccccc2)c1 (some centres unmarked)', '25.6%'),
  ('Cc1cnc2n1CCc1ccccc1C2=C1CCN([C@H]2CCN(C(=O)c3cc(C(F)(F)F)cc(C(F)(F)F)c3)[C@@H](Cc3ccccc3)C2)CC1 (relative stereo)', '44.4%'),
  ('O=C(c1cc(C(F)(F)F)cc(C(F)(F)F)c1)N1CC[C@H](N2CCC(C3c4ccccc4CCn4c3nc3ccccc34)CC2)C[C@H]1Cc1ccccc1 (some centres unmarked)', '74.2%'),
  ('O=C(c1cc(C(F)(F)F)cc(C(F)(F)F)c1)N1CCC(N2CCC(=C3c4ccc(Cl)cc4CCn4ccnc43)CC2)CC1Cc1ccccc1 (centres unmarked)', '71.6%'),
  ('Cc1cc(C)cc(C(=O)N2CC[C@H](N3CCC(C4c5ccccc5Cn5c4nc4ccccc45)CC3)C[C@H]2Cc2ccccc2)c1 (some centres unmarked)', '31.2%'),
  ('O=C(c1ccc2ccccc2c1)N1CC[C@@H](N2CCC(=C3c4ccccc4CCn4ccnc43)CC2)C[C@@H]1Cc1ccccc1 (relative stereo)', '7.5%'),
  ('Cc1cc(C)cc(C(=O)N2CC[C@@H](N3CCC(=C4c5ccccc5CCn5c(C=O)cnc54)CC3)C[C@@H]2Cc2ccccc2)c1 (relative stereo)', '100.0%'),
  ('O=C(c1cc(C(F)(F)F)cc(C(F)(F)F)c1)N1CC[C@@H](N2CCC(=C3c4ccsc4CCn4ccnc43)CC2)C[C@@H]1Cc1ccccc1 (relative stereo)', '78.1%'),
  ('O=C(Nc1cc(C(F)(F)F)cc(C(F)(F)F)c1)N1CC[C@@H](N2CCC(=C3c4ccccc4CCn4ccnc43)CC2)C[C@@H]1Cc1ccccc1 (relative stereo)', '10.9%'),
  ('Cc1cc(C)cc(C(=O)N2CC[C@@H](N3CCC(=C4c5ccsc5C(=O)Cn5ccnc54)CC3)C[C@@H]2Cc2ccccc2)c1 (relative stereo)', '66.7%'),
  ('O=C(c1cccs1)N1CCC(N2CCC(C3c4ccccc4Cn4c3nc3ccccc34)CC2)CC1Cc1ccccc1 (centres unmarked)', '9.2%'),
  ('O=C(c1cc(C(F)(F)F)cc(C(F)(F)F)c1)N1CC[C@H](N2CCC(=C3c4ccccc4CCn4c(Cl)cnc43)CC2)C[C@H]1Cc1ccccc1 (relative stereo)', '91.5%'),
  ('Cc1cc(C)cc(C(=O)N2CC[C@@H](N3CCC(C4c5ccccc5CCn5ccnc54)CC3)C[C@@H]2Cc2ccccc2)c1 (some centres unmarked)', '5.1%'),
  ('O=C(c1cc2ccccc2s1)N1CCC(N2CCC(C3c4ccccc4Cn4c3nc3ccccc34)CC2)CC1Cc1ccccc1 (centres unmarked)', '8.2%'),
  ('O=C(c1ccc2ccccc2c1)N1CCC(N2CCC(C3c4ccccc4Cn4c3nc3ccccc34)CC2)CC1Cc1ccccc1 (centres unmarked)', '6.7%'),
  ('O=C(c1cc(C(F)(F)F)cc(C(F)(F)F)c1)N1CC[C@@H](N2CCC(C3c4ccccc4CCn4ccnc43)CC2)C[C@@H]1Cc1ccccc1 (some centres unmarked)', '82.3%'),
  ('O=Cc1cnc2n1CCc1ccccc1C2=C1CCN([C@H]2CCN(C(=O)c3cc(C(F)(F)F)cc(C(F)(F)F)c3)[C@@H](Cc3ccccc3)C2)CC1 (racemic)', '96.1%'),
  ('O=C(Nc1cc(C(F)(F)F)cc(C(F)(F)F)c1)N1CC[C@@H](N2CCC(C3c4ccccc4Cn4c3nc3ccccc34)CC2)C[C@@H]1Cc1ccccc1 (some centres unmarked)', '13.9%'),
  ('O=C(c1cc(C(F)(F)F)cc(C(F)(F)F)c1)N1CCC(N2CCC(C3c4ccccc4CCn4c3nc3ccccc34)CC2)CC1Cc1ccc(Cl)c(Cl)c1 (centres unmarked)', '26.4%'),
  ('O=C(c1cc(C(F)(F)F)cc(C(F)(F)F)c1)N1CC[C@@H](N2CCC(=C3c4ccsc4CCn4ccnc43)CC2)C[C@H]1Cc1ccccc1 (relative stereo)', '39.8%'),
  ('O=C(c1cc2cc(F)ccc2[nH]1)N1CC[C@H](N2CCC(=C3c4ccccc4CCn4ccnc43)CC2)C[C@@H]1Cc1ccccc1 (relative stereo)', '1.1%'),
  ('O=C(c1cc(C(F)(F)F)cc(C(F)(F)F)c1)N1CC[C@@H](N2CCC(=C3c4ccccc4CCn4c(CO)cnc43)CC2)C[C@@H]1Cc1ccccc1 (relative stereo)', '100.0%'),
  ('Cc1cc(C)cc(C(=O)N2CC[C@H](N3CCC(=C4c5ccccc5CCn5c4nc4ccccc45)CC3)C[C@@H]2Cc2ccccc2)c1 (relative stereo)', '7.9%');
